Hey, just so you know, these numbers are from ChEMBL document CHEMBL1150750.

Form field: EC50 (one value per entry).
- Test system: KB
- experimental.protocol: Cytotoxicity against human KB cells
- Format: functional
- applied.conditions: Homo sapiens, KB; read-out: ED50 (the source's name)
measured.endpoint: EC50 (µg/mL)

CC(=O)O[C@H]1C(=O)[C@]2(C)[C@@H](OC(C)=O)C[C@H]3OC[C@@]3(OC(C)=O)[C@H]2[C@H](OC(=O)c2ccccc2)[C@]2(O)C[C@H](OC(=O)[C@H](O)[C@@H](NC(=O)c3ccccc3)c3ccccc3)C(C)=C1C2(C)C	0.004
CC(=O)O[C@H]1C(=O)[C@@]2(C)[C@H]([C@H](OC(=O)c3ccccc3)[C@]3(O)C[C@H](OC(=O)[C@H](OC(=O)CCC(=O)O)[C@@H](NC(=O)c4ccccc4)c4ccccc4)C(C)=C1C3(C)C)[C@]1(OC(C)=O)CO[C@@H]1C[C@@H]2O	0.01
CC(=O)O[C@H]1C(=O)[C@]2(C)[C@@H](OC(C)=O)C[C@H]3OC[C@@]3(OC(C)=O)[C@H]2[C@H](OC(=O)c2ccccc2)[C@]2(O)C[C@H](OC(=O)[C@H](OC(C)=O)[C@@H](NC(=O)c3ccccc3)c3ccccc3)C(C)=C1C2(C)C	0.2
CC(=O)O[C@H]1C(=O)[C@@]2(C)[C@H]([C@H](OC(=O)c3ccccc3)[C@]3(O)C[C@H](OC(=O)[C@H](O[Si](C)(C)C(C)(C)C)[C@H](NC(=O)c4ccccc4)c4ccccc4)C(C)=C1C3(C)C)[C@]1(OC(C)=O)CO[C@@H]1C[C@@H]2O	0.3
CC(=O)O[C@H]1C(=O)[C@@]2(C)[C@H]([C@H](OC(=O)c3ccccc3)[C@]3(O)C[C@H](OC(=O)[C@@H]4OC(=O)N(C(=O)c5ccccc5)[C@H]4c4ccccc4)C(C)=C1C3(C)C)[C@]1(OC(C)=O)CO[C@@H]1C[C@@H]2O	0.2

* * *

Form field: T/C (one value per entry).
- Test system: P388
- experimental.protocol: In vivo cytotoxicity against mouse P388 cells at 10 mg/kg
- Assay type: functional
measured.endpoint: T/C (%)

CC(=O)O[C@H]1C(=O)[C@@]2(C)[C@H]([C@H](OC(=O)c3ccccc3)[C@]3(O)C[C@H](OC(=O)[C@H](OC(=O)CCN)[C@@H](NC(=O)c4ccccc4)c4ccccc4)C(C)=C1C3(C)C)[C@]1(OC(C)=O)CO[C@@H]1C[C@@H]2O.O=CO	117
CC(=O)O[C@H]1C(=O)[C@]2(C)[C@@H](OC(C)=O)C[C@H]3OC[C@@]3(OC(C)=O)[C@H]2[C@H](OC(=O)c2ccccc2)[C@]2(O)C[C@H](OC(=O)[C@H](OC(C)=O)[C@@H](NC(=O)c3ccccc3)c3ccccc3)C(C)=C1C2(C)C	105
CC(=O)O[C@H]1C(=O)[C@@]2(C)[C@H]([C@H](OC(=O)c3ccccc3)[C@]3(O)C[C@H](OC(=O)[C@H](O)[C@@H](NC(=O)c4ccccc4)c4ccccc4)C(C)=C1C3(C)C)[C@]1(OC(C)=O)CO[C@@H]1C[C@@H]2O [PACLITAXEL]	137
CC(=O)O[C@H]1C(=O)[C@@]2(C)[C@H]([C@H](OC(=O)c3ccccc3)[C@]3(O)C[C@H](OC(=O)[C@H](OC(C)=O)[C@@H](NC(=O)c4ccccc4)c4ccccc4)C(C)=C1C3(C)C)[C@]1(OC(C)=O)CO[C@@H]1C[C@@H]2O	130

* * *

- System: KB
- experimental.protocol: Cytotoxicity against human KB cells
- Type: functional
measured.endpoint: ED50 (×10⁻⁴ ug/ml)

CC(=O)O[C@H]1C(=O)[C@@]2(C)[C@H]([C@H](OC(=O)c3ccccc3)[C@]3(O)C[C@H](OC(=O)[C@H](OC(=O)CCNC(=O)OCc4ccccc4)[C@@H](NC(=O)c4ccccc4)c4ccccc4)C(C)=C1C3(C)C)[C@]1(OC(C)=O)CO[C@@H]1C[C@@H]2O	1
CC(=O)O[C@H]1C(=O)[C@@]2(C)[C@H]([C@H](OC(=O)c3ccccc3)[C@]3(O)C[C@H](OC(=O)[C@H](OC(=O)CCN)[C@@H](NC(=O)c4ccccc4)c4ccccc4)C(C)=C1C3(C)C)[C@]1(OC(C)=O)CO[C@@H]1C[C@@H]2O.O=CO	2

* * *

- experimental.protocol: Solubility in water by HPLC method
- Type: physicochemical
measured.endpoint: solubility (µg/mL)

CC(=O)O[C@H]1C(=O)[C@@]2(C)[C@H]([C@H](OC(=O)c3ccccc3)[C@]3(O)C[C@H](OC(=O)[C@H](OC(=O)CCN)[C@@H](NC(=O)c4ccccc4)c4ccccc4)C(C)=C1C3(C)C)[C@]1(OC(C)=O)CO[C@@H]1C[C@@H]2O.O=CO	2200
